Recorded measurements of LE (ligand efficiency), one per entry
test system: P-gp (Homo sapiens)
applied conditions: binding free energy from IC50 per heavy atom, 310 K
A number alone suffices; assume kcal per heavy atom.

Recorded result, O=C(c1ccccc1)c1ccccc1OCC(O)CN1CCCCC1 (stereo not shown) [Compound 12] , LE (ligand efficiency): 0.33

Recorded result, COc1cc2c(cc1OC)CN(CCc1ccc(NC(=O)c3cc(OC)c(OC)cc3NC(=O)c3cnc4ccccc4c3)cc1)CC2 [Tariquidar] , LE (ligand efficiency): 0.22

Recorded result, CC(=O)c1cc(C)ccc1OCC(O)CN1CCN(CC(O)COc2ccccc2C(=O)c2ccccc2)CC1 (stereo not shown) [Compound 24] , LE (ligand efficiency): 0.18

Recorded result, O=C(CCc1ccccc1)c1ccccc1OCC(O)CN1CCC(O)(c2ccccc2)CC1 (stereo not shown) [GPV062] , LE (ligand efficiency): 0.30

----------
Recorded measurements of LE (ligand efficiency), one per entry
test system: P-gp (Homo sapiens, UniProt P08183)
Sequence (P08183 whole entry): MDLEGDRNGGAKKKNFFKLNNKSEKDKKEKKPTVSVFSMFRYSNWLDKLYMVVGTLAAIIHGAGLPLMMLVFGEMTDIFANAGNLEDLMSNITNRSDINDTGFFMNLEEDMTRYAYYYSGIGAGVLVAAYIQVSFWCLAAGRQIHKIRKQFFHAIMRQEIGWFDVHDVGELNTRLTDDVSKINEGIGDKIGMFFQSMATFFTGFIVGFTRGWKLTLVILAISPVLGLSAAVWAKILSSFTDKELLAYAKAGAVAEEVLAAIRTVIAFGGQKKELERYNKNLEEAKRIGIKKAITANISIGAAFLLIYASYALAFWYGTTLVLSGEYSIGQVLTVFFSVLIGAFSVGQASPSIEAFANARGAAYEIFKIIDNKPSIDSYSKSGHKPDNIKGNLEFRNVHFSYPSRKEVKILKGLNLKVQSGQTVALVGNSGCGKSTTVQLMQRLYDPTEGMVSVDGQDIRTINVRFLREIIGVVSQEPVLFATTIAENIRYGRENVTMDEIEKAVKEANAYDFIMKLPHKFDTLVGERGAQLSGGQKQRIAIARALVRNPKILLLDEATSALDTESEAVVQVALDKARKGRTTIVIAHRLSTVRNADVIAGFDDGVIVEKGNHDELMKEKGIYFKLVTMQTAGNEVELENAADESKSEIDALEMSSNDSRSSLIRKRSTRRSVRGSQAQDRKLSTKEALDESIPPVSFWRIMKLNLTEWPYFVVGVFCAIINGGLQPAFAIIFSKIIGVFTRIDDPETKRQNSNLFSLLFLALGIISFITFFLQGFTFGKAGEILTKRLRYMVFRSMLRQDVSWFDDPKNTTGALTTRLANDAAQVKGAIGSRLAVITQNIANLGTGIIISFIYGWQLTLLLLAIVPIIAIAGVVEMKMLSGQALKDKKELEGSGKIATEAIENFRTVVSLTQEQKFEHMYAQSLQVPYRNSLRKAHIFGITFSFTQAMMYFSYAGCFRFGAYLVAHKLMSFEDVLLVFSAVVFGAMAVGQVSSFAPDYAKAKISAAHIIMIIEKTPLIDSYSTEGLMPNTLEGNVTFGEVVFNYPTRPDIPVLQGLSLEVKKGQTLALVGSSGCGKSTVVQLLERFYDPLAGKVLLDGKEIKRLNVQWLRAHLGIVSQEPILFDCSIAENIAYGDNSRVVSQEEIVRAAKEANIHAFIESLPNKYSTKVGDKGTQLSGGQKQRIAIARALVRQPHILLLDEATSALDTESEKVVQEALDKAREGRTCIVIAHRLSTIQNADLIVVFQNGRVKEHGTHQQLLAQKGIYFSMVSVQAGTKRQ
applied conditions: binding free energy from IC50 per heavy atom, 310 K
A number alone suffices; assume kcal per heavy atom.

// known answers, use as guide
compound	LE (ligand efficiency) (kcal per heavy atom)
CCCNCC(O)COc1ccccc1C(=O)c1ccc(C)cc1 (stereo not shown) [Compound 20]	0.35
CCOC/C=C/c1ccc(-c2nc(-c3ccc(NC(C)C)cc3)c(-c3ccc(NC(C)C)cc3)[nH]2)cc1 [ONT093]	0.29
O=C(c1ccccc1)c1ccccc1OCC(O)CN1CCN(CC(O)COc2ccccc2C(=O)c2ccccc2)CC1 (stereo not shown) [Compound 23]	0.23

Note: attention shifts to another entry.
Recorded result, O=C(CCc1ccccc1)c1ccccc1OCC(O)CN1CCCCC1 (stereo not shown) [GPV005] , LE (ligand efficiency): 0.33

----------
test system: P-glycoprotein (P-gp) (Homo sapiens, UniProt P08183)
Sequence (P08183 whole entry): as above
assay comment: Inhibition of daunorubicin efflux in multidrug resistant CCRF-CEM vcr 1000 cells
Assay type: cell-based
applied conditions: pIC50 obs, observed, daunorubicin efflux inhibition
measure name: pIC50
Here pIC50 is given on a logarithmic scale as minus log10 of the concentration in mol/L.

Recorded result, O=C(c1ccccc1)c1ccccc1OCC(O)CN1CCN(CC(O)COc2ccccc2C(=O)c2ccccc2)CC1 (stereo not shown) [Compound 23] , pIC50: 7.27
